Data origin, for the record: patent US11214803B2

System: Yap1 mRNA
Test: Dose-dependent inhibition of human Yap1 in SNU-449 cells (Example 9, RTS36584)
Type: cell-based
Settings: 31.3 nM, free uptake, approximately 48 hours
Strand notation (5' to 3'): a small letter for the sugar, then the base; units joined by * are phosphorothioate-linked, units joined directly phosphodiester-linked; [ ] holds rarer units or linkages, { } end groups; capitals alone tell only the bases. e = 2'-O-(2-methoxyethyl) (MOE); k = constrained ethyl (cEt); [5mC] = 5-methylcytosine; d = 2'-deoxy (DNA); m = 2'-O-methyl
# % UTC (Yap1 mRNA) listing for each entry below
readout name: % UTC (Yap1 mRNA) (% UTC)

{"substance": "1198527 (kA*kA*dA*dG*dT*dG*dT*dA*dT*dG*dT*e[5mC]*kA*eG*kA*eA; antisense) [compound 1198527]", "reading": 63}
{"substance": "1198312 (kG*k[5mC]*kA*d[5mC]*dT*dT*dT*dT*dA*d[5mC]*dA*dT*kT*eA*kG*eG) [compound 1198312]", "reading": 76}
{"substance": "1200803 (kG*kG*kT*dA*dT*mA*dA*d[5mC]*dT*dG*dG*dG*d[5mC]*kA*kA*kA; antisense) [compound 1200803]", "reading": 72}
{"substance": "1197271 (kT*kT*kT*dA*mA*dA*dG*dT*dG*dT*dA*dT*dG*kT*k[5mC]*kA; antisense) [compound 1197271]", "reading": 70}
{"substance": "1198642 (kT*kA*dT*dT*dA*dG*dA*dG*dT*dA*dT*dG*kT*eG*kG*e[5mC]; antisense) [compound 1198642]", "reading": 79}
{"substance": "1198596 (k[5mC]*kT*k[5mC]*dT*dT*dA*dT*dA*dT*dG*dG*dT*kT*kT*kT*eG; antisense) [compound 1198596]", "reading": 73}

====

System: Yap1 mRNA
Assay: Antisense inhibition of human Yap1 in A-431 cells by cEt gapmers, single dose (Example 3, RTS36584)
Format: cell-based
Conditions: Table 12; A-431 cells, 5,000 cells per well, free uptake, 2,000 nM modified oligonucleotide, approx. 48 hours; RTS36584; normalized to RIBOGREEN; Yap1 mRNA relative to untreated control cells
Protocol: Modified oligonucleotides were designed to target a Yap1 nucleic acid and were tested for their effect on Yap1 mRNA level in vitro. The modified oligonucleotides were tested in a series of experiments that had similar culture conditions. […] After a treatment period of approximately 48 hours, RNA was isolated from the cells and Yap1 mRNA levels were measured by quantitative real-time RTPCR. […] Yap1 mRNA levels were normalized to total RNA content, as measured by RIBOGREEN®. […]
Strand notation (5' to 3'): a small letter for the sugar, then the base; units joined by * are phosphorothioate-linked, units joined directly phosphodiester-linked; [ ] holds rarer units or linkages, { } end groups; capitals alone tell only the bases. k = constrained ethyl (cEt); [5mC] = 5-methylcytosine; d = 2'-deoxy (DNA)
condition met means recorded YAP1 (% UTC) is 7 % UTC or above; condition not met means it is below 7 % UTC.

{"substance": "958534 (kT*kT*k[5mC]*dA*dG*d[5mC]*dA*dT*dA*dG*dA*dA*dG*kT*kA*kG; antisense) [Compound 958534]", "class": "condition not met"}
{"substance": "958649 (kT*kG*k[5mC]*d[5mC]*dA*d[5mC]*dT*dG*dG*dT*dG*dA*dA*kT*kA*k[5mC]; antisense) [Compound 958649]", "class": "condition met"}
{"substance": "958449 (antisense k[5mC]*k[5mC]*kG*dG*dA*d[5mC]*dG*dG*d[5mC]*dG*dG*dG*d[5mC]*k[5mC]*k[5mC]*kT) [Compound 958449]", "class": "condition met"}
{"substance": "958444 (antisense kA*k[5mC]*kG*d[5mC]*d[5mC]*d[5mC]*d[5mC]*dG*dG*d[5mC]*dT*d[5mC]*d[5mC]*kA*k[5mC]*kG) [Compound 958444]", "class": "condition met"}
{"substance": "958644 (antisense kA*kT*kG*dA*dT*d[5mC]*dA*dA*dA*d[5mC]*d[5mC]*dT*dT*kT*kT*k[5mC]) [Compound 958644]", "class": "condition not met"}

====

# YAP1 (% UTC) listing for each entry below
Test system: Yap1 mRNA
Experiment: Antisense inhibition of human Yap1 in A-431 cells by cEt gapmers, single dose (Example 2, RTS4814)
Assay type: cell-based
Conditions: Table 21; Yap1 mRNA, percent of untreated control; 3-10-3 cEt gapmers targeting SEQ ID NO.: 1 and 2
Strand notation (5' to 3'): a small letter for the sugar, then the base; units joined by * are phosphorothioate-linked, units joined directly phosphodiester-linked; [ ] holds rarer units or linkages, { } end groups; capitals alone tell only the bases. k = constrained ethyl (cEt); [5mC] = 5-methylcytosine; d = 2'-deoxy (DNA)
readout name: YAP1 (% UTC)

{"substance": "1074599 (antisense kG*k[5mC]*kT*dA*dA*d[5mC]*dT*d[5mC]*dA*dA*dA*dA*d[5mC]*k[5mC]*kT*kT) [Compound 1074599]", "readout name": "YAP1 (% UTC)", "reading": 12}
{"substance": "1076007 (k[5mC]*kA*kT*dT*dA*dG*dG*d[5mC]*d[5mC]*dT*dT*dT*dT*kA*k[5mC]*kT; antisense) [Compound 1076007]", "readout name": "YAP1 (% UTC)", "reading": 27}
{"substance": "1075751 (kG*kA*kG*dG*dA*dA*d[5mC]*dA*dA*dG*dA*dT*d[5mC]*kT*k[5mC]*kA; antisense) [Compound 1075751]", "readout name": "YAP1 (% UTC)", "reading": 72}
{"substance": "1075879 (kG*kA*kA*dT*dA*dA*dA*dG*dA*dA*dG*dT*d[5mC]*kA*k[5mC]*k[5mC]; antisense) [Compound 1075879]", "readout name": "YAP1 (% UTC)", "reading": 77}
{"substance": "1074247 (antisense kA*kT*k[5mC]*dG*dA*dT*dG*dT*dG*dA*dT*dT*dT*kA*kA*kG) [Compound 1074247]", "readout name": "YAP1 (% UTC)", "reading": 43}
{"substance": "1074791 (k[5mC]*kT*k[5mC]*d[5mC]*dA*dT*d[5mC]*dA*dA*d[5mC]*d[5mC]*dA*dT*kA*kA*kG; antisense) [Compound 1074791]", "readout name": "YAP1 (% UTC)", "reading": 20}

====

Tested on: Yap1 mRNA
Assay: Antisense inhibition of human Yap1 in A-431 cells by cEt gapmers, single dose (Example 3, RTS36584)
Type: cell-based
Details: Table 9; A-431 cells, 5,000 cells per well, free uptake, 2,000 nM, approximately 48 hours; RTS36584; normalized to RIBOGREEN; Yap1 mRNA relative to untreated control cells
Strand notation (5' to 3'): a small letter for the sugar, then the base; units joined by * are phosphorothioate-linked, units joined directly phosphodiester-linked; [ ] holds rarer units or linkages, { } end groups; capitals alone tell only the bases. k = constrained ethyl (cEt); [5mC] = 5-methylcytosine; d = 2'-deoxy (DNA)
readout name: YAP1 (% UTC)

{"substance": "958631 (antisense kT*kG*k[5mC]*dA*dA*dA*dT*dA*dG*dG*dA*dG*dA*kG*kG*kG) [Compound 958631]", "assayed system": "Yap1 mRNA", "reading": 122}
{"substance": "958536 (kA*kG*kG*dG*dT*d[5mC]*dA*dA*dT*dT*dT*dT*d[5mC]*kA*kG*k[5mC]; antisense) [Compound 958536]", "assayed system": "Yap1 mRNA", "reading": 3}
{"substance": "958456 (antisense kG*kG*k[5mC]*d[5mC]*dA*dG*dA*dG*dA*d[5mC]*dT*dA*d[5mC]*kT*k[5mC]*k[5mC]) [Compound 958456]", "assayed system": "Yap1 mRNA", "reading": 90}

====

System: Yap1 mRNA
Assay: Antisense inhibition of human Yap1 in A-431 cells by cEt gapmers, single dose (Example 3, RTS36584)
Assay type: cell-based
Conditions: Table 13; A-431 cells, 5,000 cells per well, free uptake, 2,000 nM modified oligonucleotide, approx. 48 hours; RTS36584; normalized to RIBOGREEN; Yap1 mRNA relative to untreated control cells
Strand notation (5' to 3'): a small letter for the sugar, then the base; units joined by * are phosphorothioate-linked, units joined directly phosphodiester-linked; [ ] holds rarer units or linkages, { } end groups; capitals alone tell only the bases. k = constrained ethyl (cEt); [5mC] = 5-methylcytosine; d = 2'-deoxy (DNA)
Met means recorded YAP1 (% UTC) is 60 % UTC or above; Not met means it is below 60 % UTC.

{"substance": "958650 (kT*k[5mC]*kA*dA*dT*dT*dG*dA*dG*dT*d[5mC]*dT*dG*k[5mC]*kT*kA; antisense) [Compound 958650]", "class": "Not met"}
{"substance": "958440 (antisense kT*kG*k[5mC]*dG*d[5mC]*d[5mC]*d[5mC]*d[5mC]*dG*dG*d[5mC]*dT*d[5mC]*k[5mC]*kA*k[5mC]) [Compound 958440]", "class": "Not met"}
{"substance": "958770 (antisense kA*k[5mC]*kA*dG*dA*dG*d[5mC]*dG*dG*dT*dG*d[5mC]*dA*k[5mC]*k[5mC]*k[5mC]) [Compound 958770]", "class": "Met"}
{"substance": "958555 (kG*k[5mC]*kT*dT*dA*dT*dA*dT*dT*dG*dA*dA*dG*kA*kG*kT; antisense) [Compound 958555]", "class": "Not met"}
{"substance": "958660 (k[5mC]*k[5mC]*k[5mC]*dA*d[5mC]*dT*dG*dG*dG*dT*dT*dT*dG*kT*k[5mC]*k[5mC]; antisense) [Compound 958660]", "class": "Met"}
{"substance": "958740 (antisense k[5mC]*kG*kG*d[5mC]*dA*d[5mC]*d[5mC]*dA*dA*dA*d[5mC]*dA*d[5mC]*k[5mC]*k[5mC]*kA) [Compound 958740]", "class": "Not met"}
